# Assay System: E. coli K12 PBP3 (Escherichia coli)
# Method Description: biochemical
Quick list: EC50 per entry.

Below, each entry is followed by its recorded EC50 result.
Compound: CCN1CCN(C(=O)NC(C(=O)N[C@H]2Cc3cccc(C(=O)O)c3OB2O)c2cccc(O)c2)C(=O)C1=O (stereo partly shown) [Example 68]
EC50: 30 to 500 µM

Compound: O=C(O)c1cccc2c1OB(O)[C@@H](NC(=O)C(NC(=O)N1CCN(CCF)C(=O)C1=O)c1ccc(O)c(F)c1F)C2 (stereo partly shown) [Example 235]
EC50: < 30 µM

Compound: O=C(O)c1ccc(C(NC(=O)c2c(F)cc(O)c(O)c2Cl)C(=O)N[C@H]2Cc3ccc(F)c(C(=O)O)c3OB2O)cc1F (stereo partly shown) [Example 71]
EC50: > 500 µM

Compound: NCCN1CCN(C(=O)N[C@H](C(=O)N[C@H]2Cc3cccc(C(=O)O)c3OB2O)c2ccc(C(=O)O)cc2)C(=O)C1=O (single isomer, unassigned) [Example 83]
EC50: 30 to 500 µM

Compound: CCN1CCN(C(=O)N[C@@H](C(=O)N[C@H]2Cc3cccc(C(=O)O)c3OB2O)c2ccc(C(=O)O)c(F)c2Cl)C(=O)C1=O (single isomer, unassigned) [Example 203]
EC50: < 30 µM

Ask: What value of EC50 has been recorded for this entry: CCN1CCN(C(=O)N[C@@H](C(=O)N[C@H]2Cc3cc(Cl)c(F)c(C(=O)O)c3OB2O)c2c(F)cc(O)c(O)c2Cl)C(=O)C1=O [Example 191]
Result: < 30 µM

Ask: EC50 lookup needed for O=C(O)c1cccc2c1OB(O)[C@@H](NC(=O)C(NC(=O)N1CCN(CCF)C(=O)C1=O)c1c(F)cc(O)cc1F)C2 (mixture of isomers) [Example 119] , thanks.
Result: < 30 µM

* * *

# System: N. gonorrhoeae ATCC 49226
# Method Description: Liquid broth MIC in Fastidious broth
# Format: cell-based
# Condition Description: Neisseria gonorrhoeae, ATCC49226; N. gonorrhoeae strain ATCC 49226; Fastidious broth; read-out: Minimum Inhibitory Concentration, N. gonorrhoeae ATCC 49226
Measured MIC by item

Compound: NCCN1CCN(C(=O)NC(C(=O)N[C@H]2Cc3cccc(C(=O)O)c3OB2O)c2cc(F)c(O)c(Cl)c2)C(=O)C1=O (stereo partly shown) [Example 163]
Reported Result: > 64 µg/mL
--
Compound: CCN1CCN(C(=O)N[C@@H](C(=O)N[C@H]2Cc3cccc(C(=O)O)c3OB2O)c2ccc(C(=O)O)cc2O)C(=O)C1=O (single isomer, unassigned) [Example 144]
Reported Result: 1 to 2 µg/mL
--
Compound: NCCN1CCN(C(=O)N[C@H](C(=O)N[C@H]2Cc3cccc(C(=O)O)c3OB2O)c2ccc(O)c([N+](=O)[O-])c2)C(=O)C1=O (single isomer, unassigned) [Example 200]
Reported Result: > 64 µg/mL

Ask: What does the record list as MIC for CCN1CCN(C(=O)NC(C(=O)N[C@H]2Cc3cccc(C(=O)O)c3OB2O)c2ccc(C(=O)O)c(OC)c2)C(=O)C1=O (stereo partly shown) [Example 48] ?
Result: 4 to 8 µg/mL

Ask: For NCCCN1CCN(C(=O)N[C@H](C(=O)N[C@H]2Cc3ccc(F)c(C(=O)O)c3OB2O)c2ccc(O)c(O)c2Cl)C(=O)C1=O (single isomer, unassigned) [Example 28] , what is its reported MIC?
Result: > 64 µg/mL

Ask: For the compound shown here, NS(=O)(=O)NC(C(=O)N[C@H]1Cc2ccc(F)c(C(=O)O)c2OB1O)c1ncc(O)cc1F (stereo partly shown) [Example 43] , give the reported MIC.
Result: > 64 µg/mL

Ask: I'd like to know its MIC. The compound in question is CCN1CCN(C(=O)NC(C(=O)N[C@H]2Cc3cccc(C(=O)O)c3OB2O)c2cc(Cl)c(O)cc2F)C(=O)C1=O (stereo partly shown) [Example 101]
Result: 4 to 8 µg/mL

* * *

# System: N. gonorrhoeae WHO Z
# Method Description: Liquid broth MIC in Fastidious broth
# Type: cell-based
# Condition Description: Neisseria gonorrhoeae, read-out: Minimum Inhibitory Concentration, N. gonorrhoeae WHO Z
Quantity Name: MIC

Compound: NCCN1CCN(C(=O)N[C@@H](C(=O)N[C@H]2Cc3cccc(C(=O)O)c3OB2O)c2ccc(O)c([N+](=O)[O-])c2)C(=O)C1=O (single isomer, unassigned) [Example 199]
MIC: > 64 µg/mL
--
Compound: NCCCN1CCN(C(=O)NC(C(=O)N[C@H]2Cc3cccc(C(=O)O)c3OB2O)c2c(F)cc(O)cc2F)C(=O)C1=O (stereo partly drawn) [Example 183]
MIC: > 64 µg/mL
--
Compound: NCCN1CCN(C(=O)N[C@@H](C(=O)N[C@H]2Cc3cccc(C(=O)O)c3OB2O)c2ccc(O)cc2Cl)C(=O)C1=O (single isomer, unassigned) [Example 86]
MIC: > 64 µg/mL

Next:
Ask: If you can, please state the reported MIC value of NS(=O)(=O)Nc1cccc(C(NC(=O)N2CCN(Cc3c(F)cc(O)c(O)c3Cl)C(=O)C2=O)C(=O)N[C@H]2Cc3cccc(C(=O)O)c3OB2O)c1 (stereo partly drawn) [Example 131] .
Result: > 64 µg/mL

* * *

This listing pairs molecules with measured pEC50.
# Assay System: E. coli K12 PBP3 (Escherichia coli, UniProt P0AD68)
# Sequence (P0AD68 1-577): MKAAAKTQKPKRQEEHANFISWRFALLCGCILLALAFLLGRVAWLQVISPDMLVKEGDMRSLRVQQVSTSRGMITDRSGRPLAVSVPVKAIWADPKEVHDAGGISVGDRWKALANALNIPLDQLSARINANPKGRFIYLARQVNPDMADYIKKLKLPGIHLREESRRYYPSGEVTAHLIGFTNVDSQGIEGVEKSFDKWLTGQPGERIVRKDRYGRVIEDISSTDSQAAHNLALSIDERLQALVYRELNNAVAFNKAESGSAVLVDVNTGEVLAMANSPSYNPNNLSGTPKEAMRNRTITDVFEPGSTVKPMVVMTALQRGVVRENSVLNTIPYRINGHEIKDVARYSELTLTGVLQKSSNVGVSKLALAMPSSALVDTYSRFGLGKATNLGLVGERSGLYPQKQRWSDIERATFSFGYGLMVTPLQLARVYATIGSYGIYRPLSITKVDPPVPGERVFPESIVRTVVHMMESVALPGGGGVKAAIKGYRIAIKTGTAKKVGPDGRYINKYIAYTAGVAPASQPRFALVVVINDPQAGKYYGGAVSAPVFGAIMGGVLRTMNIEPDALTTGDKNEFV
# Method Description: biochemical
pEC50: −log10 of the molar value.

Molecule: CC(C)(C)[C@@H](NC(=O)N1CCN(CCNC(=O)c2c(F)cc(O)c(O)c2Cl)C(=O)C1=O)C(=O)N[C@H]1Cc2ccc(F)c(C(=O)O)c2OB1O
Quantity Name: pEC50
Reported Result: > 4.52

Ask: Tell me the measured pEC50 of NCCN1CCN(C(=O)N[C@@H](C(=O)N[C@H]2Cc3cccc(C(=O)O)c3OB2O)c2ccc(O)cc2Cl)C(=O)C1=O (single isomer, unassigned) , please.
Result: > 4.52

Ask: # query: pEC50 of entry NS(=O)(=O)Nc1cccc([C@@H](NC(=O)N2CCN(CC(F)(F)F)C(=O)C2=O)C(=O)N[C@H]2Cc3cccc(C(=O)O)c3OB2O)c1 (single isomer, unassigned)
Result: > 4.52

* * *

# Method Description: Bocillin-FL fluorescence polarization competition binding assay, A. baumannii PBP3
# Condition Description: fluorescence polarization competition binding assay using Bocillin-FL; column 3; read-out: 4. baumannii PBP1a Potency
pEC50: −log10 of the molar value.
Quantity Name: pEC50

Compound: NCCN1CCN(C(=O)N[C@@H](C(=O)N[C@H]2Cc3ccc(F)c(C(=O)O)c3OB2O)c2c(F)c(F)c(O)c(O)c2Cl)C(=O)C1=O
pEC50: < 4.00
//
Compound: CS(=O)(=O)N1CCN(C(=O)N[C@@H](C(=O)N[C@H]2Cc3ccc(F)c(C(=O)O)c3OB2O)c2c(F)c(F)c(O)c(O)c2Cl)C1=O
pEC50: 4.52 to 5.00
//
Compound: CS(=O)(=O)N1CCN(C(=O)N[C@@H](C(=O)N[C@H]2Cc3ccc(F)c(C(=O)O)c3OB2O)c2c(F)cc(O)c(O)c2Cl)C1=O (single isomer, unassigned)
pEC50: 4.00 to 4.52
//
Compound: CCN1CCN(C(=O)N[C@@H](C(=O)N[C@H]2Cc3ccc(F)c(C(=O)O)c3OB2O)c2c(F)c(F)c(O)c(O)c2Cl)C(=O)C1=O
pEC50: 4.52 to 5.00
//
Compound: CCN1CCN(C(=O)N[C@@H](C(=O)N[C@H]2Cc3ccc(F)c(C(=O)O)c3OB2O)c2ccc(O)c(O)c2)C(=O)C1=O
pEC50: 4.00 to 4.52
//
Compound: NCCCN1CCN(C(=O)N[C@@H](C(=O)N[C@H]2Cc3cccc(C(=O)O)c3OB2O)c2ncc(O)cc2F)C(=O)C1=O
pEC50: > 5.00
//
Compound: NCCCN1CCN(C(=O)N[C@@H](C(=O)N[C@H]2Cc3ccc(F)c(C(=O)O)c3OB2O)c2c(F)cc(O)c(O)c2Cl)C(=O)C1=O (single isomer, unassigned)
pEC50: 4.00 to 4.52
//
Compound: CCN1CCN(C(=O)NC(C(=O)N[C@H]2Cc3cccc(C(=O)O)c3OB2O)c2cccc(NC(=O)c3ccc(O)c(O)c3Cl)c2)C(=O)C1=O (some centres unmarked)
pEC50: > 5.00
//
Compound: O=C(O)c1c(F)ccc2c1OB(O)[C@@H](NC(=O)C(NC(=O)N1CCN(CCBr)C(=O)C1=O)c1c(F)cc(O)c(O)c1F)C2 (some centres unmarked)
pEC50: 4.52 to 5.00
//
Compound: O=C(O)c1c(F)ccc2c1OB(O)[C@@H](NC(=O)C(NC(=O)N1CCN(CCF)C(=O)C1=O)c1c(F)cc(O)c(O)c1F)C2 (some centres unmarked)
pEC50: 4.00 to 4.52

Ask: Any idea what its pEC50 is? The compound is O=C(O)c1c(F)ccc2c1OB(O)[C@@H](NC(=O)[C@H](NC(=O)N1CCNC1=O)c1c(F)cc(O)c(O)c1Cl)C2 (single isomer, unassigned)
Result: < 4.00

Ask: If you can, please state the reported pEC50 value of O=C(NC(C(=O)N[C@H]1Cc2ccc(F)c(C(=O)O)c2OB1O)c1ncc(O)cc1F)c1ccc(O)c(O)c1Cl (some centres unmarked) .
Result: < 4.00

Ask: Given CCN1CCN(C(=O)NC(C(=O)N[C@H]2Cc3cccc(C(=O)O)c3OB2O)c2ccc(C(=O)O)c(F)c2)C(=O)C1=O (some centres unmarked) , state its recorded pEC50.
Result: > 5.00

Ask: May I ask what pEC50 has been recorded for NCCCN1CCN(C(=O)N[C@@H](C(=O)N[C@H]2Cc3cc(Cl)c(F)c(C(=O)O)c3OB2O)c2c(F)cc(O)c(O)c2Cl)C(=O)C1=O ?
Result: < 4.00

Ask: What measured pEC50 goes with O=C(O)c1ccc(C(NC(=O)c2c(F)cc(O)c(O)c2Cl)C(=O)N[C@H]2Cc3ccc(F)c(C(=O)O)c3OB2O)cc1F (some centres unmarked) ?
Result: < 4.00

Ask: # get_value(readout='pEC50', item= CCN1CCN(C(=O)N[C@@H](C(=O)N[C@H]2Cc3ccc(F)c(C(=O)O)c3OB2O)c2c(Cl)cc(O)c(O)c2F)C(=O)C1=O (single isomer, unassigned) )
Result: 4.52 to 5.00

Ask: // lookup pEC50 for CS(=O)(=O)N1CCN(C(=O)NC(C(=O)N[C@H]2Cc3ccc(F)c(C(=O)O)c3OB2O)c2ccc(O)c(O)c2Cl)C1=O (some centres unmarked)
Result: 4.00 to 4.52
